Where these numbers come from: patent US9492436B2

# testName: Aqueous solubility (buffer vs acetonitrile/water, 24 h shaking, LC-UV)
# Format: physicochemical
# measurementContext: kinetic from dmso stock, pH 4.5 buffer, 2.5% DMSO, ">" = more than 90% dissolved
measuredProperty: solubility at 24 h (µg/mL)

Some compounds with recorded solubility at 24 h:
>>> print(df.to_string())
                                   compound    measuredproperty  valueunit  reportedvalue
0  CS(C)(=O)=NCC1CCN(c2ccc(-c3nc4[nH]c(O[C@@H]5CO[C@H]6[C@@H]5OC[C@H]6O)nc4cc3Cl)cc2)CC1  solubility at 24 h      µg/mL            105
1  CS(C)(=O)=Nc1ccc(-c2ccc(-c3nc4[nH]c(O[C@@H]5CO[C@H]6[C@@H]5OC[C@H]6O)nc4cc3Cl)cc2)cc1  solubility at 24 h      µg/mL              2
2  CS(C)(=O)=NCc1ccc(-c2ccc(-c3nc4[nH]c(O[C@@H]5CO[C@H]6[C@@H]5OC[C@H]6O)nc4cc3Cl)cc2)cn1  solubility at 24 h      µg/mL             28
3  CS(C)(=O)=NCc1ccc(-c2ccc(-c3nc4[nH]c(O[C@@H]5CO[C@H]6[C@@H]5OC[C@H]6O)nc4cc3Cl)cc2)cc1  solubility at 24 h      µg/mL              5

(a) CS(C)(=O)=Nc1cnc(-c2ccc(-c3nc4[nH]c(O[C@@H]5CO[C@H]6[C@@H]5OC[C@H]6O)nc4cc3Cl)cc2)nc1
(b) CS(=N)(=O)c1ccc(-c2ccc(-c3nc4[nH]c(O[C@@H]5CO[C@H]6[C@@H]5OC[C@H]6O)nc4cc3Cl)cc2)cc1 (some centres unmarked)
In: Between item a and item b , which reported solubility at 24 h is smaller? Lab log: write the label of the selected item as the result.
Out: b
(b: 2 µg/mL, a: 5 µg/mL)
